Measured SARS E protein Inhibition (score/# of times tested) accompanies every entry in the list below.
target: SARS-CoV E protein (Severe acute respiratory syndrome coronavirus)
Sequence (P59637 whole entry, looked up): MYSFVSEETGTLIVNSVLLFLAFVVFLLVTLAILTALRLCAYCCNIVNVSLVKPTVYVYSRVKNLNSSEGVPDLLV
Type: cell-based
measured_property: SARS E protein Inhibition (score/# of times tested)

{"molecule": "NC(N)=NC(=O)/C=C/c1ccc(Br)cc1 [(4-Bromocinnamoyl)guanidine]", "result": "1.69/2 score"}
{"molecule": "N=C(N)NC(=O)c1ccc2cc(Br)ccc2c1 [6-bromo-2-napthoylguanidine]", "result": "0.25/1 score"}
{"molecule": "NC(N)=NC(=O)c1nc(Cl)c(Nc2ccc(F)cc2)nc1N [5-(4-fluorophenyl)amiloride]", "result": "1.38/1 score"}
{"molecule": "N=C(N)NC(=O)/C=C/c1cccc(Cl)c1 [(3-Chlorocinnamoyl)guanidine]", "result": "3.87/3 score"}
{"molecule": "CC(C)(C)c1cccc(/C=C/C(=O)NC(=N)N)c1 [3-t-butylcinnamoylguanidine]", "result": "2.00/1 score"}
{"molecule": "N=C(NC(=O)c1ccc2cc(O)ccc2c1)Nc1ccccc1", "result": "1.35/3 score"}
{"molecule": "N=C(N)NC(=O)/C=C/c1cccc(F)c1 [3-fluorocinnamoylguanidine]", "result": "1.50/1 score"}
{"molecule": "CCN(c1nc(N)c(C(=O)N=C(N)N)nc1Cl)C(C)C [5-(N-Ethyl-N-isopropyl)amiloride, 5-(N-ethyl-N-isopropyl)amiloride]", "result": "1.07/2 score"}
{"molecule": "N=C(N)NC(=O)/C=C/c1cccc(-c2ccccc2)c1 [3-phenylcinnamoylguanidine]", "result": "3.13/1 score"}
{"molecule": "N=C(N)NC(=O)c1ccc(-c2ccccc2)cc1 [4-phenylbenzoylguanidine]", "result": "0.63/2 score"}
{"molecule": "CCCCC/C=C/c1cccc(/C=C/C(=O)NC(=N)N)c1", "result": "1.71/1 score"}
{"molecule": "N/C(=N/C(=O)c1ccc2ccccc2c1)Nc1ccccc1 [N-(2-napthoyl)-N′-phenylguanidine]", "result": "0.07/2 score"}
{"molecule": "CCOc1ccccc1/C=C/C(=O)NC(=N)N [2-ethoxycinnamoylguanidine]", "result": "2.57/1 score"}
{"molecule": "CC(C)c1ccc(/C=C/C(=O)NC(=N)N)cc1 [4-isopropylcinnamoylguanidine]", "result": "3.16/2 score"}
{"molecule": "N=C(N)NC(=O)/C=C/c1ccccc1Br [(2-Bromocinnamoyl)guanidine]", "result": "2.47/3 score"}
{"molecule": "Cc1cccc(/C=C/C(=O)NC(=N)N)c1 [3-methylcinnamoylguanidine]", "result": "1.00/1 score"}
{"molecule": "NC(N)=NC(=O)c1nc(Cl)c(N2CCCCCC2)nc1N [5-(N,N-hexamethylene)amiloride]", "result": "1.2/3 score"}
{"molecule": "N=C(N)NC(=O)/C=C/c1ccc(-c2ccccc2)cc1 [4-phenylcinnamoylguanidine]", "result": "2.75/2 score"}

* * *

target: Vpu protein (Human immunodeficiency virus type 1 group M subtype B)
Sequence (P05919 whole entry): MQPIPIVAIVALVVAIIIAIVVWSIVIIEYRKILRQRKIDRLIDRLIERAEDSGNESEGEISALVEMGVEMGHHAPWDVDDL
test_conditions: halo of growth score between zero and six; XL1-blue E. coli with pPL-Vpu, no adenine, 37° C.
Where a name gives a salt, the structure may show the parent alone.
# Vpu Inhibition (score/# of times tested) listing for each entry below

{"molecule": "N=C(N)NC(=O)/C=C/c1ccccc1-c1ccccc1", "Vpu Inhibition (score/# of times tested)": "2.1/2 score"}
{"molecule": "N/C(=N\\C(=O)c1nc(Cl)c(N)nc1N)Nc1ccccc1 [Phenamil methanesulfonate salt]", "Vpu Inhibition (score/# of times tested)": "0.9/5 score"}
{"molecule": "CCOc1ccccc1/C=C/C(=O)NC(=N)N", "Vpu Inhibition (score/# of times tested)": "2.25/2 score"}
{"molecule": "N/C(=N\\C(=O)/C=C/c1ccccc1)NC(=O)c1ccccc1", "Vpu Inhibition (score/# of times tested)": "0.06/2 score"}
{"molecule": "Cc1cccc(/C=C/C(=O)NC(=N)N)c1", "Vpu Inhibition (score/# of times tested)": "3.4/2 score"}
{"molecule": "O=C(/C=C/c1ccccc1)NC(=Nc1ccccc1)NC(=O)/C=C/c1ccccc1", "Vpu Inhibition (score/# of times tested)": "0.94/2 score"}
{"molecule": "CC(C)(C)c1ccc(/C=C/C(=O)NC(=N)N)cc1", "Vpu Inhibition (score/# of times tested)": "0.19/2 score"}
{"molecule": "N=C(NC(=O)CCc1ccccc1)NC(=O)CCc1ccccc1", "Vpu Inhibition (score/# of times tested)": "0.1/2 score"}
{"molecule": "N=C(N)NC(=O)COc1ccc(Cl)cc1 [[(4-Chlorophenoxy-acetyl]guanidine, (4-Chlorophenoxy-acetyl)guanidine]", "Vpu Inhibition (score/# of times tested)": "0.56/2 score"}
{"molecule": "N=C(N)NC(=O)/C=C/c1cccc([N+](=O)[O-])c1", "Vpu Inhibition (score/# of times tested)": "0.9/1 score"}
{"molecule": "NC(N)=NC(=O)c1nc(-c2ccccc2)c(N2CCCCCC2)nc1N", "Vpu Inhibition (score/# of times tested)": "0.6/2 score"}
{"molecule": "N=C(N)NC(=O)/C=C/c1cccc(-c2ccccc2)c1", "Vpu Inhibition (score/# of times tested)": "2.54/3 score"}
{"molecule": "COc1cccc(/C=C/C(=O)NC(=N)N)c1", "Vpu Inhibition (score/# of times tested)": "1.52/6 score"}
{"molecule": "Cl.N=C(N)NC(=O)/C=C/c1ccccc1 [cinnamoylguanidine hydrochloride]", "Vpu Inhibition (score/# of times tested)": "0.6/2 score"}
{"molecule": "N=C(N)NC(=O)/C=C/c1ccoc1 [trans-3-Furanacryoylguanidine, trans-3-furanacryoylguanidine]", "Vpu Inhibition (score/# of times tested)": "0.38/2 score"}
{"molecule": "Cc1ccccc1/C=C/C(=O)NC(=N)N", "Vpu Inhibition (score/# of times tested)": "3.1/2 score"}

* * *

target: 229E-CoV E-protein (Human coronavirus 229E)
Sequence (P19741 whole entry): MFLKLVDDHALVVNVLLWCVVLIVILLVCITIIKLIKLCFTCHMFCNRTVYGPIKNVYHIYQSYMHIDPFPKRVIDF
experimental_protocol: Bacterial bio-assay for 229E-CoV E-protein
test_conditions: halo of growth score; E. coli expressing E protein at 37° C.
Measured 229E E protein Inhibition (score), listed per entry.
measured_property: 229E E protein Inhibition (score)

{"molecule": "Cc1ccc(/C=C/C(=O)NC(=N)N)cc1 [4-methylcinnamoylguanidine]", "measured_property": "229E E protein Inhibition (score)", "result_number": 0.3}
{"molecule": "N=C(N)NC(=O)/C=C/c1ccc(O)cc1 [(4-Hydroxycinnamoyl)guanidine]", "measured_property": "229E E protein Inhibition (score)", "result_number": 0.6}
{"molecule": "CCOc1ccccc1/C=C/C(=O)NC(=N)N [2-ethoxycinnamoylguanidine]", "measured_property": "229E E protein Inhibition (score)", "result_number": 0.6}
{"molecule": "Cc1cccc(/C=C/C(=O)NC(=N)N)c1 [3-methylcinnamoylguanidine]", "measured_property": "229E E protein Inhibition (score)", "result_number": 0.5}
{"molecule": "CC(C)c1ccc(/C=C/C(=O)NC(=N)N)cc1 [4-isopropylcinnamoylguanidine]", "measured_property": "229E E protein Inhibition (score)", "result_number": 4.9}
{"molecule": "NC(N)=NC(=O)/C=C/c1ccc(Cl)cc1 [(4-Chlorocinnamoyl)guanidine]", "measured_property": "229E E protein Inhibition (score)", "result_number": 1.4}
{"molecule": "Cc1ccc(C)c(/C=C/C(=O)NC(=N)N)c1 [2,5-dimethylcinnamoylguanidine]", "measured_property": "229E E protein Inhibition (score)", "result_number": 1.6}
{"molecule": "N=C(N)NC(=O)/C=C/c1cccc(Br)c1 [(3-Bromocinnamoyl)guanidine]", "measured_property": "229E E protein Inhibition (score)", "result_number": 1.7}
{"molecule": "N=C(N)NC(=O)/C=C/c1ccc2ccccc2c1 [3-(2-napthyl)acryloylguanidine]", "measured_property": "229E E protein Inhibition (score)", "result_number": 3.0}
{"molecule": "C/C(=C\\c1ccccc1)C(=O)NC(=N)N [(a-Methylcinnamoyl)guanidine, (α-Methylcinnamoyl)guanidine]", "measured_property": "229E E protein Inhibition (score)", "result_number": 1.0}
{"molecule": "NC(N)=NC(=O)c1nc(Cl)c(Nc2ccc(F)cc2)nc1N [5-(4-fluorophenyl)amiloride]", "measured_property": "229E E protein Inhibition (score)", "result_number": 1.8}
{"molecule": "CCOc1ccc(/C=C/C(=O)NC(=N)N)cc1 [4-ethoxycinnamoylguanidine]", "measured_property": "229E E protein Inhibition (score)", "result_number": 0.1}
{"molecule": "CC(C)(C)Nc1nc(N)c(C(=O)N=C(N)N)nc1Cl [5-tert-butylamino-amiloride]", "measured_property": "229E E protein Inhibition (score)", "result_number": 0.3}
{"molecule": "NC(N)=NC(=O)c1nc(Cl)c(N2CCCCCC2)nc1N [5-(N,N-hexamethylene)amiloride]", "measured_property": "229E E protein Inhibition (score)", "result_number": 1.9}
{"molecule": "N=C(N)NC(=O)/C=C/c1cccc([N+](=O)[O-])c1 [(3-Nitrocinnamoyl)guanidine]", "measured_property": "229E E protein Inhibition (score)", "result_number": 0.1}
{"molecule": "N=C(N)NC(=O)/C=C/c1cccc(F)c1F [2,3-difluorocinnamoylguanidine]", "measured_property": "229E E protein Inhibition (score)", "result_number": 3.3}
{"molecule": "N=C(N)NC(=O)/C=C/c1cccc(Cl)c1 [(3-Chlorocinnamoyl)guanidine]", "measured_property": "229E E protein Inhibition (score)", "result_number": 0.8}
